target: human recombinant norepinephrine transporter (Homo sapiens, UniProt P23975); construct: expressed in transfected cells; host or cells: MDCK; assay: Norepinephrine transporter reuptake inhibition assay; format: cell-based; settings: 100 nM; MDCK cells with human norepinephrine transporter; [3H]Norepinephrine uptake; read-out: Inhibition % at 100 nM NE reuptake
Sequence (P23975 whole entry): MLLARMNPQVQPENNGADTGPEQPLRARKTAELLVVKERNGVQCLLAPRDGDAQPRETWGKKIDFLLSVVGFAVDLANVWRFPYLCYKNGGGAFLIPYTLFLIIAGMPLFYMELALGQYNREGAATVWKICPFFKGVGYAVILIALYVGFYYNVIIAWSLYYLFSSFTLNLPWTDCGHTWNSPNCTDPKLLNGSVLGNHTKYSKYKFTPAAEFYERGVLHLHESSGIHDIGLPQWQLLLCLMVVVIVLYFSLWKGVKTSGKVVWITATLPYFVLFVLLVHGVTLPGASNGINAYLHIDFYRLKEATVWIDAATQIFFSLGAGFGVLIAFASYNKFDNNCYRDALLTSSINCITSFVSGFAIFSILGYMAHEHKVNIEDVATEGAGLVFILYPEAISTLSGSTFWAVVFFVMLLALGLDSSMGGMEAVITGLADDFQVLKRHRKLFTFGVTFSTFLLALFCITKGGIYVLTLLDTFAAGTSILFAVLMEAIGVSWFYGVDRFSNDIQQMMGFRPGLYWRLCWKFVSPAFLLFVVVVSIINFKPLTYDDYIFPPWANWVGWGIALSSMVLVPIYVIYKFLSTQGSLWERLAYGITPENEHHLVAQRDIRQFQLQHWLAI
Lab note: compare inhibition at 0.1 µM against 60%. Equal or greater, write TRUE. Smaller, write FALSE.

Fc1ccc2cc([C@@H]([C@@H]3CCCNC3)n3ncnn3)ccc2c1
TRUE
c1ccc2cc([C@@H]([C@@H]3CCCNC3)n3ncnn3)ccc2c1
TRUE

Query: Decide: is the reported value of inhibition at 0.1 µM for c1ccc2cc([C@H]([C@H]3CCCNC3)n3nccn3)ccc2c1 equal to or greater than 60%?
Result: TRUE

Query: Threshold query (inhibition at 0.1 µM >= 60%) on Cc1ccc2cc([C@H]([C@H]3CCCNC3)n3ncnn3)ccc2c1
Result: TRUE

Query: Check the entry Cc1ccc2cc([C@@H]([C@H]3CCCNC3)n3ncnn3)ccc2c1 : does inhibition at 0.1 µM equal or exceed 60%?
Result: FALSE

Query: Say whether c1ccc2cc([C@@H]([C@@H]3CCCNC3)n3nccn3)ccc2c1 shows inhibition at 0.1 µM of 60% or more.
Result: TRUE

Query: Please tell me: is the compound Clc1ccc([C@@H]([C@@H]2CCCNC2)n2ncnn2)cc1Cl at or over 60% in terms of inhibition at 0.1 µM?
Result: TRUE

Query: Kindly determine if inhibition at 0.1 µM recorded for Clc1ccc2cc([C@@H]([C@@H]3CCCNC3)n3ncnn3)ccc2c1 is above or exactly 60%.
Result: TRUE

Query: Decide: inhibition at 0.1 µM of c1ccc2cc([C@H]([C@H]3CCCNC3)n3cncn3)ccc2c1 >= 60%?
Result: FALSE

Query: Entry c1ccc2cc([C@H]([C@H]3CCCNC3)n3ncnn3)ccc2c1 : is its inhibition at 0.1 µM no less than 60%?
Result: TRUE

Query: Is inhibition at 0.1 µM at least 60%? Consider c1ccc2cc([C@H]([C@H]3CCCNC3)n3nc4ccccc4n3)ccc2c1
Result: FALSE

====

The compounds listed here are annotated with their inhibition at 0.1 µM.
target: human recombinant dopamine transporter (Homo sapiens); construct: expressed in transfected cells; host or cells: CHO-K1; assay: Dopamine transporter reuptake inhibition assay; assay type: cell-based; settings: 100 nM; CHO-K1 cells with human dopamine transporter; [3H]Dopamine uptake; read-out: Inhibition % at 100 nM DA reuptake
Record the value in %, omitting the unit from your answer.

Below, each entry is followed by its recorded inhibition at 0.1 µM result.
c1ccc2cc([C@H]([C@H]3CCCNC3)n3nccn3)ccc2c1
52
c1ccc2cc([C@H]([C@H]3CCCNC3)n3cncn3)ccc2c1
44
Fc1ccc2cc([C@H]([C@H]3CCCNC3)n3ncnn3)ccc2c1
54
c1ccc2cc([C@H]([C@H]3CCCNC3)n3nc4ccccc4n3)ccc2c1
84

Record Clc1ccc2cc([C@H]([C@H]3CCCNC3)n3ncnn3)ccc2c1 . Reported inhibition at 0.1 µM: 63

Sample Clc1ccc([C@@H]([C@@H]2CCCNC2)n2ncnn2)cc1Cl ; inhibition at 0.1 µM observed: 99

The value of inhibition at 0.1 µM measured for the compound Clc1ccc2cc([C@@H]([C@@H]3CCCNC3)n3ncnn3)ccc2c1 turned out to be 81

inhibition at 0.1 µM for Fc1ccc2cc([C@H]([C@@H]3CCCNC3)n3ncnn3)ccc2c1 is -4

Summary for this compound, c1ccc2cc([C@@H]([C@@H]3CCCNC3)n3ncnn3)ccc2c1 : inhibition at 0.1 µM is 88

Noted for c1ccc(-c2nnn([C@H](c3ccc4ccccc4c3)[C@H]3CCCNC3)n2)cc1 : its inhibition at 0.1 µM reads 41

Lab book: inhibition at 0.1 µM of COc1ccc2cc([C@H]([C@H]3CCCNC3)n3ncnn3)ccc2c1 noted as 78

====

molecular target: human recombinant dopamine transporter (Homo sapiens, UniProt Q01959); construct: expressed in transfected cells; host or cells: CHO-K1; assay: Dopamine transporter reuptake inhibition assay; type: cell-based; details: 100 nM; CHO-K1 cells with human dopamine transporter; [3H]Dopamine uptake; read-out: Inhibition % at 100 nM DA reuptake
Sequence (Q01959 whole entry): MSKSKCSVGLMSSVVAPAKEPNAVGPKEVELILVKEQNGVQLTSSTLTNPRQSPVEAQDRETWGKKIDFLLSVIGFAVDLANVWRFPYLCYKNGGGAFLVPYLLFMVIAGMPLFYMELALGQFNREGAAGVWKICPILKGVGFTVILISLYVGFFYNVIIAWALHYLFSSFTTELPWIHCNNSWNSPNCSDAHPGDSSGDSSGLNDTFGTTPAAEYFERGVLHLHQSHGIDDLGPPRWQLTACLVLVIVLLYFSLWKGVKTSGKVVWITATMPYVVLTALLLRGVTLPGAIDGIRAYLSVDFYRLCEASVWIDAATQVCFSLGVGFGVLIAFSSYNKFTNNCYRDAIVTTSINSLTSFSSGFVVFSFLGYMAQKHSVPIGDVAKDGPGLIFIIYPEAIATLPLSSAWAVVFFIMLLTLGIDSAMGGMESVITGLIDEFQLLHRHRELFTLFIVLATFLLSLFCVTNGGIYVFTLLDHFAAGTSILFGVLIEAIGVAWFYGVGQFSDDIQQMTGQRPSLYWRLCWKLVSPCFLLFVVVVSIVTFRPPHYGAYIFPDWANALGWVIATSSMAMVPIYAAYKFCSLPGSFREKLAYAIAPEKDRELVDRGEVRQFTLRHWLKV
MEASURE_NAME: inhibition at 0.1 µM (%)
Express your answer in %, writing the number without its unit.

These recorded examples may help you get a feel for the data.
Clc1ccc2cc([C@@H]([C@H]3CCCNC3)n3ncnn3)ccc2c1
3
Fc1ccc2cc([C@@H]([C@@H]3CCCNC3)n3ncnn3)ccc2c1
66
Cc1nnn([C@@H](c2ccc3ccccc3c2)[C@@H]2CCCNC2)n1
92

Measured on human recombinant dopamine transporter (Homo sapiens, UniProt Q01959), Cc1ccc2cc([C@@H]([C@H]3CCCNC3)n3ncnn3)ccc2c1 has a documented inhibition at 0.1 µM of 35

Tested on human recombinant dopamine transporter (Homo sapiens, UniProt Q01959), the item Fc1ccc2cc([C@@H]([C@H]3CCCNC3)n3ncnn3)ccc2c1 showed inhibition at 0.1 µM equal to 2

The molecule c1ccc2cc([C@H]([C@H]3CCCNC3)n3ncnn3)ccc2c1 , tested on human recombinant dopamine transporter (Homo sapiens, UniProt Q01959), showed inhibition at 0.1 µM of 85

Known value: human recombinant dopamine transporter (Homo sapiens, UniProt Q01959) inhibition at 0.1 µM of the molecule Cc1ccc2cc([C@H]([C@H]3CCCNC3)n3ncnn3)ccc2c1 equals 81

The recorded inhibition at 0.1 µM with human recombinant dopamine transporter (Homo sapiens, UniProt Q01959) for c1ccc2cc([C@@H]([C@@H]3CCCNC3)n3nccn3)ccc2c1 was 63

I looked up Cc1nnn([C@H](c2ccc3ccccc3c2)[C@H]2CCCNC2)n1 and its inhibition at 0.1 µM for human recombinant dopamine transporter (Homo sapiens, UniProt Q01959) was 93

====

biological target: human serotonin transporter (Homo sapiens, UniProt P31645); construct: expressed in transfected cells; host or cells: HEK-293; assay: Serotonin transporter reuptake inhibition assay; type: cell-based; conditions: HEK293; 100 nM; HEK-293 cells with human serotonin transporter; [3H]Serotonin uptake; read-out: Inhibition % at 100 nM 5-HT reuptake
Sequence (P31645 whole entry): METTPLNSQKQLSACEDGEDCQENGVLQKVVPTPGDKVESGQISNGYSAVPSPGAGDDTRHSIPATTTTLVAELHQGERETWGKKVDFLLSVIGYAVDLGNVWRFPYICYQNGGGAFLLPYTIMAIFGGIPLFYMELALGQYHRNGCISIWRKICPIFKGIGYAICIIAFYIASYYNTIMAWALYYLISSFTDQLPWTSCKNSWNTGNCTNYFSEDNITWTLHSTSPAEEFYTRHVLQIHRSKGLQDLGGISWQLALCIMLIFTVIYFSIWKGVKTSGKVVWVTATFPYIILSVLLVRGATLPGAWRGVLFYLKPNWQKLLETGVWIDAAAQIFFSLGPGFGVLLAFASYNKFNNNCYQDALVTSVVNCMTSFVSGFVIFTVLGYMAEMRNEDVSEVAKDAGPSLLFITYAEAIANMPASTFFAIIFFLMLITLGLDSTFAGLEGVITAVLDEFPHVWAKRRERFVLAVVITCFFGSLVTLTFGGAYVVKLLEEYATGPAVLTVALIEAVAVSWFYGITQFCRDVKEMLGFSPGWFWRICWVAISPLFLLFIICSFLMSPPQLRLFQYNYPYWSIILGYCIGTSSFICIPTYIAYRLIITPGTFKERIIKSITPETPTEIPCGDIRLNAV
Please mark y if the recorded inhibition at 0.1 µM is equal to or greater than 80%, and n if it falls below.

Clc1ccc2cc([C@H]([C@H]3CCCNC3)n3ncnn3)ccc2c1 [Example 68]
y
c1ccc2cc([C@@H]([C@@H]3CCCNC3)n3nccn3)ccc2c1 [Example 13]
y
c1ccc2cc([C@H]([C@H]3CCCNC3)n3nccn3)ccc2c1 [Example 14]
n
c1ccc2cc([C@H]([C@H]3CCCNC3)n3nc4ccccc4n3)ccc2c1 [Example 80]
n
Cc1nnn([C@H](c2ccc3ccccc3c2)[C@H]2CCCNC2)n1 [Example 10]
y

Query: State whether the measured inhibition at 0.1 µM reaches 80%, counting equality as reaching it, for Cc1ccc2cc([C@@H]([C@H]3CCCNC3)n3ncnn3)ccc2c1 [Example 86]
Result: y

====

Measured inhibition in vivo at 30 mg/kg values are reported for all entries that follow.
Test system: mice
Test: Forced swimming test in mice (FST)
Type: in vivo
Settings: Mus musculus, 0.5 h, 30ip, 30 min after administration, vs control group, read-out: Reduction % at 30ip (duration of immobility)
Experimental: Forced Swimming Test in Mice (FST) The Forced swimming test is an animal model based on the rodent's behavioral repertoire for screening drugs with potential antidepressant activity. […] The mice were intraperitoneally treated with the test compound with an injection volume of 10 mg/kg. […] The total duration of immobility (second) was measured during the last 4 minutes of a single 6-min test session. […]
Reply numerically in %, unit not repeated.

The compound listed as c1ccc2cc([C@@H]([C@@H]3CCCNC3)n3nccn3)ccc2c1 has a reported inhibition in vivo at 30 mg/kg of 9.4

For this compound ( Clc1ccc([C@@H]([C@@H]2CCCNC2)n2ncnn2)cc1Cl ), measured inhibition in vivo at 30 mg/kg is 96.5

// inhibition in vivo at 30 mg/kg value for c1ccc2cc([C@H]([C@H]3CCCNC3)n3nccn3)ccc2c1 : 6.4

====

target: human serotonin transporter (Homo sapiens, UniProt P31645); construct: expressed in transfected cells; host or cells: HEK-293; test: Serotonin transporter reuptake inhibition assay; format: cell-based; conditions: HEK293; 100 nM; HEK-293 cells with human serotonin transporter; [3H]Serotonin uptake; read-out: Inhibition % at 100 nM 5-HT reuptake
Parameter inhibition at 0.1 µM: see the listing below.
Form entry: enter the amount, then its unit.

Cc1ccc2cc([C@H]([C@H]3CCCNC3)n3ncnn3)ccc2c1 [Example 85]
94%
Fc1ccc2cc([C@@H]([C@H]3CCCNC3)n3ncnn3)ccc2c1 [Example 72]
86%

Consider now this further compound.
Per the records, this compound ( Fc1ccc2cc([C@@H]([C@@H]3CCCNC3)n3ncnn3)ccc2c1 [Example 83] ) has inhibition at 0.1 µM equal to 96%

Reference source for all entries: patent US8513285B2
